- Tested on: M14 melanoma
- procedure_details: NCI tumour cell line growth inhibition, 48 h
Provide the reported TGI of each item.
One number for each entry, in µM.

Answer for every listed entry: what is its TGI? The entries follow.
1. O=C(/C=C/c1ccc(Oc2cc(C(=O)/C=C/c3ccc(O)cc3)c(O)cc2O)cc1)c1ccc(O)cc1O
2. CN(CCNCc1ccccn1)CCNCc1ccccn1
3. Cc1cc(C)nc(NS(=O)(=O)c2ccc(NC(=O)c3cccc4c(Nc5ccc(S(=O)(=O)Nc6cc(C)on6)cc5)c5ccccc5nc34)cc2)n1
4. Cc1cc(C#Cc2ccc(C(C)(C)C)cc2)ccc1-n1c(/C=C/c2ccc(O)cc2O)nc2ccccc2c1=O

Result:
24.1
5.93
47.5
25.6
